Tested on: Aspergillus fumigatus
Assay: Concentration required to inhibit 90-100% of visible fungal growth in Aspergillus fumigatus (WM1) tested in vitro
Format: functional
Kindly supply the reported MIC values for the records listed here.

Report MIC for each item below.
1. C/C=C1\NC(=O)[C@H]([C@H](C)O)NC(=O)[C@H](CCN)NC(=O)[C@H](CCCCN)NC(=O)[C@H](CC(=O)O)NC(=O)[C@@H](CCN)NC(=O)[C@@H](NC(=O)C[C@H](O)CCCCCCCCCCC)COC(=O)[C@H]([C@H](O)CCl)NC(=O)[C@H]([C@H](O)C(=O)NC(Cc2ccccc2)C(=O)OC)NC1=O (some centres not stated)
2. C/C=C1/NC(=O)[C@H]([C@H](C)O)NC(=O)[C@H](CCN)NC(=O)[C@H](CCCCN)NC(=O)[C@H](CC(=O)O)NC(=O)[C@@H](CCN)NC(=O)[C@@H](NC(=O)C[C@H](O)CCCCCCCCCCC)COC(=O)[C@H]([C@H](O)CCl)NC(=O)[C@H]([C@H](O)C(=O)NC2CC2)NC1=O

1: > 20 µg/mL; 2: > 20 µg/mL

* * *

Kindly supply the reported MIC values for the records listed here.
System: Aspergillus fumigatus
Experiment: Concentration required to inhibit 90-100% of visible fungal growth in Aspergillus fumigatus (WM1) tested in vitro
Type: functional

Some molecules with recorded MIC:
1) C/C=C1/NC(=O)[C@H]([C@@H](C)O)NC(=O)[C@H](CCN)NC(=O)[C@H](CCCCN)NC(=O)[C@H](CC(=O)O)NC(=O)[C@@H](CCN)NC(=O)[C@@H](NC(=O)C[C@H](O)CCCCCCCCCCC)COC(=O)[C@H]([C@H](O)CCl)NC(=O)[C@H]([C@H](O)C(=O)NCCCN(C)C)NC1=O    > 20 µg/mL
2) C/C=C1/NC(=O)[C@H]([C@H](C)O)NC(=O)[C@H](CCN)NC(=O)[C@H](CCCCN)NC(=O)[C@H](CC(=O)O)NC(=O)[C@@H](CCN)NC(=O)[C@@H](NC(=O)C[C@H](O)CCCCCCCCCCC)COC(=O)[C@H]([C@H](O)CCl)NC(=O)[C@H]([C@H](O)C(=O)NCCCC)NC1=O    > 20 µg/mL

Now turn to the next molecule.
The molecule listed as C/C=C1/NC(=O)[C@H]([C@H](C)O)NC(=O)[C@H](CCN)NC(=O)[C@H](CCCCN)NC(=O)[C@H](CC(=O)O)NC(=O)[C@@H](CCN)NC(=O)[C@@H](NC(=O)C[C@H](O)CCCCCCCCCCC)COC(=O)[C@H]([C@H](O)CCl)NC(=O)[C@H]([C@H](O)C(=O)NC)NC1=O has a reported MIC of > 20 µg/mL

Entry source: ChEMBL document CHEMBL1133990
